experiment: yeast display, Sf9 membrane polyspecificity reagent, FACS + sequencing; frameworks hold sequencing errors
Metric: polyreactivity (PSR sort gate)

Record excerpt, results attached:
QVQLVESGGGLVQAGGSLRLSCAASGRTFATYAMGWYRQEPGKERELVAAISTSGGSTYYADSVKGRFTISRDNAKNTVYLQMNSLKPEDTAVYYCAAVLSWRGYTCPVYAFDYWGQGTQVTVSS :: high polyreactivity
QVQHVESGGGLVQAGGSLRLSCAASGSIFNLYVMGWYRQAPGKERELVATISSGGSTNYADSVKGRFTISRDNAKNTVYLQMNSLKPEDTAVYYCAKPYIVYYSMDYWGQGTQVTVSS :: low polyreactivity
QVQLVESGGGLVQAGGSLRLSCAASGFLFGYSAMGWYRQAPGKERELVAAISYACRSTYYADSVKGRFTISRDNAKNTVYLQMNSLKPEDTAVYYCAKYGQSNYDWGQGTQVTVSS :: high polyreactivity
QVQIVESGGGLVQAGGSLRLSCAASGRTFIGNVMGWYRQAPGKERELVAAISKSGTRTYYADSVKGRFTISRDNAKNTFYLQMNSLKPEDTAVYYCAKDHYPRTDDFGYWGQGTQVTVSS :: high polyreactivity
QVQLVESGGGLVQAGGSLRLSCAASGFIFARYAMGWYRQAPGKERELVASITGRGTSTRYADSVKGRFTISRDNAKNTVYLQMNSLKPEDTAVFYCNAARLSYSWVPSEMDYWGQGTQVTVSS :: high polyreactivity
QVQLVESGGGLVQAGGSLRLSCAASGRTFYRNAMGWYRQAPGKERELVGAISQSGGSTYYADSVKGRFKISRDNAKNTVYLQMNCLIPEDTAVYSCAAGKSRRVGMDYWGQGTQVTVSS :: high polyreactivity

For QVQLVESGGGLVQAGGSLRLSCAASGRNFAWYAMGWYRQAPGKERELVAAISWSSDTTYYADSVKGRFTISRDNAKNTVYLQMNSLKPEDTAVYYCAAVFQGYTRKYYYWGQGTQVTVSS , write its polyreactivity (PSR sort gate).
high polyreactivity

For QDQLVESGGGLVQAGCSLRLSCAASGRTFKDYAMGWYRQAPGKERELVAAITYRDRTYYADSVKGRFTISRDNAKNTVYLQMNSLNTEDTAVYYCNAEGFSGMDYWGKGTQVTVSS , write its polyreactivity (PSR sort gate).
low polyreactivity

The values you see were collected from the nanobody polyreactivity screen of Harvey et al. (2022).
